- System: CAKI-1 renal
- Test name: NCI tumour cell line growth inhibition, 48 h
Consider the following molecules and their measured TGI readings.
Measurement name: TGI

- Molecule: "COc1ccc(Nc2nc(NCCNc3ccnc4cc(Cl)ccc34)nc(N3CCOCC3)n2)cc1"
  Measurement name: "TGI"
  Result value: "17.5 µM"
- Molecule: "O=[N+]([O-])c1nccn1CC(O)c1ccccc1 (stereo not given)"
  Measurement name: "TGI"
  Result value: "> 100 µM"
- Molecule: "CN(O)C(=O)CCC(NC(=O)CCC(N)C(=O)O)C(=O)NCC(=O)O (stereo not given)"
  Measurement name: "TGI"
  Result value: "> 100 µM"
- Molecule: "CC1(C)Oc2ccc3ccc(=O)oc3c2C(O)C1O (stereo not given)"
  Measurement name: "TGI"
  Result value: "> 100 µM"
- Molecule: "CC1=C(C#N)C23C(=O)N(c4ccccc4)C(=O)C2=C(O)C=CC3(O)N1Cc1ccc(Cl)cc1Cl (stereo not given)"
  Measurement name: "TGI"
  Result value: "12.1 µM"
- Molecule: "O=c1[nH]c(NCc2cccnc2)nc2nc[nH]c12"
  Measurement name: "TGI"
  Result value: "> 100 µM"
- Molecule: "Cc1ccc(CNc2ccc3nc(CCC4CCCCC4)[nH]c3c2)cc1"
  Measurement name: "TGI"
  Result value: "7.03 µM"
- Molecule: "Cc1cc(OCc2nnc3n2S(=O)(=O)c2ccccc2N3C)ccc1Cl"
  Measurement name: "TGI"
  Result value: "> 100 µM"
- Molecule: "CC#Cc1c(O)c2c(c(O)c1C#CC)C(=O)c1ccccc1C2=O"
  Measurement name: "TGI"
  Result value: "> 100 µM"
- Molecule: "COc1ccc(C2SCC(=O)N2c2ccc(-n3c(-c4ccccc4)nc4ccccc4c3=O)cc2)cc1 (stereo not given)"
  Measurement name: "TGI"
  Result value: "> 100 µM"
